target: HLA-B*18:01; test: IEDB peptide-MHC binding, purified MHC/competitive/fluorescence; filed as Kd, often an IC50 or EC50 that approximates it; bounds were set here for any values at or beyond the usual limits of such assays; conditions: source organism: Orthohantavirus puumalaense
pKd: −log10 of the molar value.
MEASUREMENT_TYPE: pKd

GET /value?item= SPVMGVIGF &field=pKd returns ≤ 4.70

* * *

target: HLA-B*08:01; assay: IEDB peptide-MHC binding, purified MHC/competitive/radioactivity; filed as Kd, often an IC50 or EC50 that approximates it; bounds were set here for any values at or beyond the usual limits of such assays; conditions: source organism: Dengue virus 1 Brazil/97-11/1997
MEASUREMENT_TYPE: pKd
Scale: pKd equals -log10([C]), with [C] in mol/L.

VFKKRNLTI 7.12

Entry under test: IMNRRKRSV . Its pKd was 8.68

* * *

target: HLA-A*23:01; experiment: IEDB peptide-MHC binding, purified MHC/competitive/fluorescence; filed as Kd, often an IC50 or EC50 that approximates it; bounds were set here for any values at or beyond the usual limits of such assays; conditions: source organism: Escherichia coli O157:H7 str. Sakai
MEASUREMENT_TYPE: Kd

Briefly, Kd measured for HQIWLALRY : ≥ 20 µM

* * *

molecular target: HLA-B*18:01; assay: IEDB peptide-MHC binding, purified MHC/competitive/radioactivity; filed as Kd, often an IC50 or EC50 that approximates it; bounds were set here for any values at or beyond the usual limits of such assays; settings: source organism: Mammarenavirus lassaense
Reported Kd values follow for various sequences

KEAYCQEFFL ≥ 30.5 µM

Now consider the entry below.
Item KDPLITSGC was tested on HLA-B*18:01; the reported Kd is ≥ 77.5 µM

* * *

target: HLA-B*07:02; assay: IEDB peptide-MHC binding, purified MHC/competitive/fluorescence; bounds were set here for any values at or beyond the usual limits of such assays; settings: source organism: Influenza A virus (A/Oklahoma/309/2006(H3N2))
MEASUREMENT_TYPE: IC50
Provide a numeric answer, followed by its unit.

The sequence listed as QPEWFRNIL shows IC50 equal to 188 nM

* * *

target: HLA-B*44:02; experiment: IEDB peptide-MHC binding, purified MHC/competitive/radioactivity; filed as Kd, often an IC50 or EC50 that approximates it; bounds were set here for any values at or beyond the usual limits of such assays; conditions: source organism: Mammarenavirus choriomeningitidis
MEASUREMENT_TYPE: Kd (µM)
Unit µM implied. Number only.

Record summary for MDLLLFSTS : reported Kd = 6.84

* * *

molecular target: HLA-A*68:02; test: IEDB peptide-MHC binding, purified MHC/competitive/radioactivity; filed as Kd, often an IC50 or EC50 that approximates it; bounds were set here for any values at or beyond the usual limits of such assays; conditions: source organism: Hepatitis C virus (isolate 1)
MEASUREMENT_TYPE: pKd
Would you please state pKd, meaning minus log10 of the concentration in mol/L, as a bare number?

Sure, the documented pKd for KLVALGINAV is 4.89

* * *

target: HLA-B*57:01; test: IEDB peptide-MHC binding, purified MHC/direct/fluorescence; filed as Kd, often an IC50 or EC50 that approximates it; bounds were set here for any values at or beyond the usual limits of such assays; conditions: source organism: Toxoplasma gondii
pKd: −log10 of the molar value.
MEASUREMENT_TYPE: pKd

Reported pKd for KTSGRGSCM was ≤ 4.70

* * *

target: HLA-B*53:01; assay: IEDB peptide-MHC binding, purified MHC/competitive/radioactivity; filed as Kd, often an IC50 or EC50 that approximates it; bounds were set here for any values at or beyond the usual limits of such assays; details: source organism: Dengue virus 3 Sri Lanka/1266/2000
MEASUREMENT_TYPE: Kd (µM)
Supply the numeric figure in µM, leaving out any unit text.

Form field Kd, entry LPMTVAAMG : 3.54

* * *

target: HLA-B*39:01; assay: IEDB peptide-MHC binding, purified MHC/competitive/fluorescence; filed as Kd, often an IC50 or EC50 that approximates it; bounds were set here for any values at or beyond the usual limits of such assays; settings: source organism: Orthohantavirus puumalaense
MEASUREMENT_TYPE: Kd

Lab book: Kd of SPVMGVIGF noted as ≥ 20 µM

* * *

target: HLA-B*18:01; test: IEDB peptide-MHC binding, purified MHC/competitive/fluorescence; filed as Kd, often an IC50 or EC50 that approximates it; bounds were set here for any values at or beyond the usual limits of such assays; conditions: source organism: Orthomarburgvirus marburgense
MEASUREMENT_TYPE: Kd (nM)
Your answer is read as nM, so omit the unit and give the number.

sequence GFPSLESSF , Kd observed: 263

* * *

The following sequences are listed with their measured Kd values.
biological target: HLA-B*27:05; assay: IEDB peptide-MHC binding, purified MHC/direct/fluorescence; filed as Kd, often an IC50 or EC50 that approximates it; bounds were set here for any values at or beyond the usual limits of such assays; settings: source organism: Giardia lamblia ATCC 50803

ETKKRMDYF ≥ 20 µM

Form: sequence = DIIRAHPWF ; Kd = ≥ 20 µM

Given item SYPPPPASF , the value recorded as its Kd is ≥ 20 µM

* * *

biological target: HLA-A*01:01; assay: IEDB peptide-MHC binding, purified MHC/direct/fluorescence; filed as Kd, often an IC50 or EC50 that approximates it; bounds were set here for any values at or beyond the usual limits of such assays; settings: source organism: Ebola virus - Gabon (1994-1997)
MEASUREMENT_TYPE: Kd

Recorded result, QLSLKMLSL , Kd: ≥ 20 µM

* * *

target: HLA-A*03:01; experiment: IEDB peptide-MHC binding, purified MHC/direct/fluorescence; filed as Kd, often an IC50 or EC50 that approximates it; bounds were set here for any values at or beyond the usual limits of such assays; conditions: source organism: Burkholderia mallei
MEASUREMENT_TYPE: Kd

The reported HLA-A*03:01 Kd of EPFSRRHPL is ≥ 20 µM

* * *

target: HLA-A*31:01; experiment: IEDB peptide-MHC binding, purified MHC/competitive/radioactivity; filed as Kd, often an IC50 or EC50 that approximates it; bounds were set here for any values at or beyond the usual limits of such assays; conditions: source organism: Dengue virus 3 Martinique/1243/1999
MEASUREMENT_TYPE: pKd
Scale for pKd: -log10 of concentration given in mol/L; no unit attached.

MWSLMYFHR 7.54

Kindly consider the entry below.
The measured pKd associated with MWSLMYFHRR reads 7.94

* * *

molecular target: HLA-A*02:12; assay: IEDB peptide-MHC binding, purified MHC/competitive/fluorescence; filed as Kd, often an IC50 or EC50 that approximates it; bounds were set here for any values at or beyond the usual limits of such assays; conditions: source organism: Vibrio vulnificus CMCP6
MEASUREMENT_TYPE: pKd
// field semantics: pKd = negative decimal log of concentration (mol/L)

Given the sequence LMLHQQYNQ and test system HLA-A*02:12, the measured pKd is 6.73

* * *

target: HLA-B*15:17; assay: IEDB peptide-MHC binding, purified MHC/direct/fluorescence; filed as Kd, often an IC50 or EC50 that approximates it; bounds were set here for any values at or beyond the usual limits of such assays; conditions: source organism: Escherichia coli O157:H7
MEASUREMENT_TYPE: Kd

Entry YQAFRTKVH ; Kd = ≥ 20 µM

* * *

biological target: HLA-B*18:01; assay: IEDB peptide-MHC binding, purified MHC/direct/fluorescence; filed as Kd, often an IC50 or EC50 that approximates it; bounds were set here for any values at or beyond the usual limits of such assays; conditions: source organism: Mycobacterium tuberculosis variant bovis BCG str. Pasteur 1173P2
MEASUREMENT_TYPE: Kd

Consider HPTSRRELL . Its measured Kd is ≥ 20 µM

* * *

target: HLA-A*02:01; assay: IEDB peptide-MHC binding, purified MHC/direct/fluorescence; filed as Kd, often an IC50 or EC50 that approximates it; bounds were set here for any values at or beyond the usual limits of such assays; settings: source organism: Influenza A virus (A/quail/Hong Kong/FY298/00(H9N2))
MEASUREMENT_TYPE: Kd

Kd recorded for this sequence, TKDAERGKL , is ≥ 20 µM

* * *

target: HLA-A*68:02; assay: IEDB peptide-MHC binding, purified MHC/competitive/radioactivity; filed as Kd, often an IC50 or EC50 that approximates it; bounds were set here for any values at or beyond the usual limits of such assays; settings: source organism: Triticum aestivum
MEASUREMENT_TYPE: pKd
The read-out pKd is expressed as -log10 of concentration in moles per litre.

Short answer for SQVSFQQPL : pKd was 6.69

* * *

Entries and their measured Kd follow.
molecular target: HLA-B*15:17; assay: IEDB peptide-MHC binding, purified MHC/competitive/fluorescence; filed as Kd, often an IC50 or EC50 that approximates it; bounds were set here for any values at or beyond the usual limits of such assays; details: source organism: Zaire ebolavirus

# count of solved cases: 2
DETFVHSGF ≥ 20 µM
FTFDLTALK ≥ 20 µM

Entry WQQWDRQSL : Kd on HLA-B*15:17 = ≥ 20 µM
